Target: human sphingosine-1-phosphate receptor 1 (S1P1) (Homo sapiens, UniProt P21453)
Sequence (P21453 whole entry): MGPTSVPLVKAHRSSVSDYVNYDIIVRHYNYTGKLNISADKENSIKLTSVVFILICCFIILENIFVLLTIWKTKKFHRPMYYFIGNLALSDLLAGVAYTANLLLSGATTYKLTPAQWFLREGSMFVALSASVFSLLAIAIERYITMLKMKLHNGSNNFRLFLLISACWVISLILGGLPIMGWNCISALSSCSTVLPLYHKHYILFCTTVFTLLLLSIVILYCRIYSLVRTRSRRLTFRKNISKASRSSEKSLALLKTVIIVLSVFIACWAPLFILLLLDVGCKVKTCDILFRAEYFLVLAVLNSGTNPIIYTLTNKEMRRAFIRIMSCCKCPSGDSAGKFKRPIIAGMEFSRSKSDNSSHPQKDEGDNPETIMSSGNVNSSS
Assay: Inhibition of cAMP production (HTRF cAMP HiRange), S1P1 CHO-K1 cells
Type: cell-based
Conditions: CHO-K1; efficacy normalized to maximum efficacy of fingolimod; read-out: hS1P1 CAMP SPAN
quantity kind: Emax

Recorded results for 2 molecules are shown here.
CC(C)Nc1ccc(-c2nnc(-c3cccc4[nH]cnc34)o2)cc1C#N	> 75%
CC(C)Nc1ccc(-c2nnc(-c3ccc4c(c3)CCC(=O)N4)o2)cc1C#N	> 75%

// query Emax value for entry CCC1(CC)CC(=O)c2cc(-c3nc(-c4ncccn4)no3)ccc2O1
> 75%

// query Emax value for entry Cc1ccccc1-c1csc(-c2ccc3c(ccn3C(C)C)n2)n1
> 75%

// query Emax value for entry COc1cccc(-c2csc(-c3ccc4c(ccn4C(C)C)c3)n2)c1
< 75%

// query Emax value for entry CC1CC(=O)c2ccc(-c3nc(-c4ccncc4)no3)cc2O1 (stereo not drawn)
< 75%

// query Emax value for entry COc1ccccc1-c1nc(-c2ccc3c(c2)nnn3CC(C)(C)CO)no1
> 75%

// query Emax value for entry CCC1(CC)CC(=O)c2cc(-c3nc(-c4cccnc4C(F)(F)F)no3)ccc2O1
> 75%

// query Emax value for entry CCC1(CC)CC(=O)c2cc(-c3nc(-c4ccnc(C(N)=O)c4)no3)ccc2O1
< 75%
